B1: library; numbered along this chain (parent)
chain: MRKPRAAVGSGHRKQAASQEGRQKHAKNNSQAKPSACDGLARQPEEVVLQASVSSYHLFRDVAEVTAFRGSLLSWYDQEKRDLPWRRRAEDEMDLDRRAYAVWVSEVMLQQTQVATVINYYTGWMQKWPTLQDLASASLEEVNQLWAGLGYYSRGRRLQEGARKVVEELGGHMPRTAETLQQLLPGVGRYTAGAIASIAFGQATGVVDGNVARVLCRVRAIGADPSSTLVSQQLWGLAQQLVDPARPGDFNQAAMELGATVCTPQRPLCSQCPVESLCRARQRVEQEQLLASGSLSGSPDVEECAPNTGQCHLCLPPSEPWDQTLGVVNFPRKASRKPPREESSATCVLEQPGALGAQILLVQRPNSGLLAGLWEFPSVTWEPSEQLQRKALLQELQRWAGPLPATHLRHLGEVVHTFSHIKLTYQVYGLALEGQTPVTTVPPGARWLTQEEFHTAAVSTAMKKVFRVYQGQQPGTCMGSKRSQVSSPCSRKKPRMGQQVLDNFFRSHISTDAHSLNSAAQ

variants of: B1; assay: 8OG:A repair function score (normalized; synonymous = 0, nonsense = -1) (normalized log-likelihood score); higher = more repair activity (WT-like); conditions: with 8OG:A DNA repair reporter (GFP) in HEK-293 MUTYH KO cells;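 note: cells sorted at 72 h after reporter transfection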
Is 8OG:A repair function score at least -0.07? Then criterion met. If not, criterion not met.

Example entries and their recorded answers appear below.
F59A | criterion not met
Q450G | criterion met
A135D | criterion not met

# input Check the entry `V327A` : does 8OG:A repair function score equal or exceed -0.07?
# output criterion not met

# input Check the entry `W374F` : does 8OG:A repair function score equal or exceed -0.07?
# output criterion not met

# input Check the entry `A6S` : does 8OG:A repair function score equal or exceed -0.07?
# output criterion not met

# input Check the entry `T460E` : does 8OG:A repair function score equal or exceed -0.07?
# output criterion not met

# input Check the entry `N251W` : does 8OG:A repair function score equal or exceed -0.07?
# output criterion not met

# input Check the entry `A520F` : does 8OG:A repair function score equal or exceed -0.07?
# output criterion met

# input Check the entry `I221L` : does 8OG:A repair function score equal or exceed -0.07?
# output criterion not met

# input Check the entry `P267H` : does 8OG:A repair function score equal or exceed -0.07?
# output criterion not met

# input Check the entry `Q388K` : does 8OG:A repair function score equal or exceed -0.07?
# output criterion not met

# input Check the entry `T406D` : does 8OG:A repair function score equal or exceed -0.07?
# output criterion met
